assay: Leishmania major promastigote growth inhibition, primary screen (AID 1063); conditions: Leishmania major promastigotes, resazurin fluorescence viability; at 10 µM; hits give high values;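 note: promastigotes grown with compound for 44 hours at 28 °C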
In all, about 200,000 compounds went through this assay and about 18,000 (9%) were called active. For the sample, actives were picked, then their nearest neighbours and some compounds at random.
Values of inhibition strictly less than 10% map to 1 (yes), and values of at least 10% map to 0 (no).

>>> group("S=C(Nc1ccc(Br)cc1Cl)NC1CCN(Cc2ccccc2)CC1")
"0 (no)"
>>> group("O=C(NC(=S)N1CCN(Cc2ccccc2)CC1)c1ccccc1")
"0 (no)"

hey, is inhibition for COc1cc2[nH]c(=O)n(CCC(=O)NC3CCN(Cc4ccccc4)CC3)c(=O)c2cc1OC lower than 10% or not?
1 (yes)

hey, is inhibition for O=C(COc1ccccc1F)NC1CC1 lower than 10% or not?
1 (yes)

hey, is inhibition for S=C(NN=C1CCN(Cc2ccccc2)CC1)NC1CCCCC1 lower than 10% or not?
1 (yes)

hey, is inhibition for O=C(NC1CCN(Cc2ccccc2)CC1)c1c(F)cccc1F lower than 10% or not?
0 (no)

====

assay: Leishmania major promastigote growth inhibition, primary screen (AID 1063); settings: Leishmania major promastigotes, resazurin fluorescence viability; at 10 µM; hits give high values;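 note: promastigotes grown with compound for 44 hours at 28 °C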
Among all 200,000 compounds or so, about 18,000 (9%) were called active. This excerpt belongs to a sample that is enriched for actives.
metric: inhibition

Some compounds with recorded inhibition:
>>> value_observed("O=C(COC(=O)CNC(=O)c1ccco1)Nc1ccc(F)cc1")
"-2.3% (inactive)"
>>> value_observed("O=C(CSC1=NCCS1)Nc1nc(-c2ccccc2)cs1")
"67.4% (active)"
>>> value_observed("Cc1cccc(CCNS(=O)(=O)c2ccc(S(=O)(=O)NC3CCCC3)cc2)c1")
"68.6% (active)"
>>> value_observed("CCNC(=O)CSc1nc(-c2ccccc2)cs1")
"3.19% (inactive)"
>>> value_observed("O=C(Nc1nc(-c2ccc(-c3ccccc3)cc2)cs1)c1cnccn1")
"47.8% (inactive)"

Looking up CCC(C)(C)NC(=O)CN(Cc1cccs1)C(=O)CNS(=O)(=O)c1ccc(F)cc1 , I see its inhibition listed as -4.43% (inactive)

Looking up Cc1ccc(-c2csc(NC(=O)Cn3[nH]c(=O)c4ccccc4c3=O)n2)cc1 , I see its inhibition listed as 5.27% (inactive)

Looking up Cc1cccc(S(=O)(=O)CC(=O)Nc2nc(-c3ccccc3)cs2)c1 , I see its inhibition listed as 98.6% (active)

Looking up Cn1cnc([N+](=O)[O-])c1Sc1ccccc1 , I see its inhibition listed as 51.5% (active)

Looking up Cc1ccc(-c2csc(NNC(=O)c3ccccc3)n2)cc1 , I see its inhibition listed as 16.8% (inactive)

Looking up Cn1nc(-c2ccccc2)c(CO)c1Sc1ccccc1 , I see its inhibition listed as 18.3% (inactive)

====

assay: Leishmania major promastigote growth inhibition, primary screen (AID 1063); conditions: Leishmania major promastigotes, resazurin fluorescence viability; at 10 µM; hits give high values;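 note: promastigotes grown with compound for 44 hours at 28 °C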
The campaign covered roughly 200,000 compounds. About 18,000 (9%) were called active. Many of the other results were omitted from the sample, so actives are more common in it than they were.
metric: inhibition (%)
Please respond with the number in % and leave the unit unwritten.

Some compounds with recorded inhibition:
>>> value_observed("COC(=O)c1c(C(=O)OC)c(-c2cccc(C)c2)n2c1CS(=O)C2 (stereo not drawn)")
-12.1
>>> value_observed("CC(NC(=O)COC(=O)c1cc(=O)[nH]c2ccccc12)c1ccccc1 (stereo not drawn)")
-4.71
>>> value_observed("COc1ccc(-c2nc3ccccc3n2CCC(C)C)cc1OC")
66.8
>>> value_observed("CC(C)(C)NC(=O)c1ccc(Cn2cc(C(F)(F)F)ccc2=O)cc1")
-0.17
>>> value_observed("COCCn1c(-c2ccc(OC)c(OC)c2)nc2ccccc21")
11.3

Looking up CC(C)c1nc(-c2ccccn2)no1 , I see its inhibition listed as -3.52

Source: PubChem BioAssay AID1063
